The following compounds are listed with their measured MIC values.
Tested on: E. coli (KpC1812446)
Assay: microbe, parasite or virus in culture
Details: Escherichia coli
Reply with just the number (in µM).

| Smiles Code | MIC / µM |
| --- | --- |
| [H]/N=C(/N)N[C@H]1[C@H](O)[C@@H](O)[C@H](O[C@@H]2O[C@@H](C)[C@](O)(C=O)[C@H]2O[C@@H]2O[C@@H](CO)[C@H](O)[C@@H](O)[C@@H]2NC)[C@@H](N/C(N)=N\[H])[C@@H]1O | 14 |

Looking for the measured MIC of C[C@@H](O)[C@H]1C(=O)N2C(C(=O)O)=C(S[C@@H]3CN[C@H](C(=O)N(C)C)C3)[C@H](C)[C@H]12 , can you help?
0.6

----------
Test system: E. coli (KpC+1812446) planktonic cells
Details: Table 8, planktonic cells; antibiotic in combination with GGH-CM15
Measurement Kind: MBIC Antibiotic + Peptide (µM)
Reply with just the number (in µM).

| Smiles Code | Measurement Unit | MBIC Antibiotic + Peptide |
| --- | --- | --- |
| COc1cc(Cc2cnc(N)nc2N)cc(OC)c1OC | µM | 110 |
| CC1(C)S[C@@H]2[C@H](NC(=O)[C@H](N)c3ccccc3)C(=O)N2[C@H]1C(=O)O | µM | 366 |
| O=C(N[C@H](CO)[C@H](O)c1ccc([N+](=O)[O-])cc1)C(Cl)Cl | µM | 3 |
| C[C@@H](O)[C@H]1C(=O)N2C(C(=O)O)=C(S[C@@H]3CN[C@H](C(=O)N(C)C)C3)[C@H](C)[C@H]12 | µM | 0.16 |

Please find the next compound below.
For the record [H]/N=C(/N)N[C@H]1[C@H](O)[C@@H](O)[C@H](O[C@@H]2O[C@@H](C)[C@](O)(C=O)[C@H]2O[C@@H]2O[C@@H](CO)[C@H](O)[C@@H](O)[C@@H]2NC)[C@@H](N/C(N)=N\[H])[C@@H]1O , what value of MBIC Antibiotic + Peptide is listed for E. coli (KpC+1812446) planktonic cells?
14

----------
The following substances are listed with their measured MBIC values.
Test system: E. coli (KpC1812446)
Details: agent alone, BM2 minimal medium
Ends that are not written are not given here.

Past entries and their recorded results:
| Substance | Recorded Measurement |
| --- | --- |
| GGHGLFDVIKKVASVIGGL-NH2 [GGH-Citropin1.1] | >34 µM |
| VIHKWKLFKKIGAVLKVL [VIH-CM15] | 8 µM |
| GLFDVIKKVASVIGGL-NH2 [Citropin1.1, GLFDVIKKVASVIGGL-NH2, reference compound] | >40 µM |
| GGHKWKLFKKIGAVLKVL [GGH-CM15] | 4 µM |

Please find the next substance below.
For the record VIHGLFDVIKKVASVIGGL-NH2 [VIH-Citropin1.1] , what value of MBIC is listed for E. coli (KpC1812446)?
>33 µM

----------
Test system: E. coli (KpC+1812446) biofilm
Settings: Table 7, biofilm; antibiotic in combination with CM15
The following molecules are listed with their measured MBIC Antibiotic + Peptide values.
Reply with just the number (in µM).

Past entries and their recorded results:
| Molecule | Measurement Unit | MBIC Antibiotic + Peptide |
| --- | --- | --- |
| C[C@@H](O)[C@H]1C(=O)N2C(C(=O)O)=C(S[C@@H]3CN[C@H](C(=O)N(C)C)C3)[C@H](C)[C@H]12 [MER, meropenem] | µM | 0.16 |
| O=C(N[C@H](CO)[C@H](O)c1ccc([N+](=O)[O-])cc1)C(Cl)Cl [CHL, chloramphenicol] | µM | 396 |
| COc1cc(Cc2cnc(N)nc2N)cc(OC)c1OC [TRI, trimethoprim] | µM | 440 |
| [H]/N=C(/N)N[C@H]1[C@H](O)[C@@H](O)[C@H](O[C@@H]2O[C@@H](C)[C@](O)(C=O)[C@H]2O[C@@H]2O[C@@H](CO)[C@H](O)[C@@H](O)[C@@H]2NC)[C@@H](N/C(N)=N\[H])[C@@H]1O [STR, streptomycin] | µM | 4 |

Looking for the measured MBIC Antibiotic + Peptide of CC1(C)S[C@@H]2[C@H](NC(=O)[C@H](N)c3ccccc3)C(=O)N2[C@H]1C(=O)O [AmP, ampicillin] , can you help?
366

Recorded values, source patent US20260226105A1.
